Molecular target: N-terminal GST tagged full length human TTK kinase (Homo sapiens)
Construct: N-terminal GST tagged full length human TTK kinase; GST (N); made in house; host or cells: insect cells
Sequence (P33981 1-857): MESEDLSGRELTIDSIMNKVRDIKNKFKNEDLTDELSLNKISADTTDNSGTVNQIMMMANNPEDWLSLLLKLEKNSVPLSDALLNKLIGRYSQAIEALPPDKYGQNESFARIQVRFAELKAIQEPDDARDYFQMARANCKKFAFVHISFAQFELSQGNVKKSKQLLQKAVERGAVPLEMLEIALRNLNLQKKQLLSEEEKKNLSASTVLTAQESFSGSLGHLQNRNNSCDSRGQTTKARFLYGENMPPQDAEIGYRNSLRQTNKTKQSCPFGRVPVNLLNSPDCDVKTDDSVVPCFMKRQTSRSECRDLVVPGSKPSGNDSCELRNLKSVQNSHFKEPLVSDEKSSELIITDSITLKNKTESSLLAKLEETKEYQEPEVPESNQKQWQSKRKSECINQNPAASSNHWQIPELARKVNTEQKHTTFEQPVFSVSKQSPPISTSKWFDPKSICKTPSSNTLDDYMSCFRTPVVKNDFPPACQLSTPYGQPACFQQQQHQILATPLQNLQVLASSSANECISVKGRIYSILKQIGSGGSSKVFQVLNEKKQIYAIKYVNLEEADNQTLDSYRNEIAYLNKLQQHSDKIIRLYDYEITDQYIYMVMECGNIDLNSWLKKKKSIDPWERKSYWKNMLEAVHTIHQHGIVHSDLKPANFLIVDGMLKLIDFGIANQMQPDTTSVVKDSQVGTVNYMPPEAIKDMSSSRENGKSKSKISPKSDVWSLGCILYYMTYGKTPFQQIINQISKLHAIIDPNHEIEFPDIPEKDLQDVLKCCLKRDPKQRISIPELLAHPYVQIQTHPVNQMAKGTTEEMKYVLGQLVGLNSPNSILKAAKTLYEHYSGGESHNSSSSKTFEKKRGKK
Experiment: In Vitro TTK Kinase Assay 2 (Caliper LabChip LC3000)
Format: biochemical
Conditions: recombinant TTK, 12 μM ATP, read-out: EAA2: Enzyme Assay Activity (In Vitro TTK kinase assay 2)
attribute_measured: IC50 (nM)

Some entries whose results are on file:
CCOc1cc(OCCN(C)C)ccc1Nc1ncc2c(n1)n(C1CCCC1)c(=O)n2C
28.9
Cn1c(=O)n(C2CCCC2)c2nc(Nc3ccc(N4CCS(=O)(=O)CC4)cc3)ncc21
15.2
CNC(=O)c1ccc(Nc2ncc3c(n2)n(C2CCCC2)c(=O)n3C)c(OC)c1
32.2
Cn1c(=O)n(C2CCCC2)c2nc(Nc3ccc(Cc4ccccc4)cc3)ncc21
195
COc1cc(C(=O)NCCCN(C)C)ccc1Nc1ncc2c(n1)n(C1CCCC1)c(=O)n2C
50.9
COc1cc(C(=O)O)ccc1Nc1ncc2c(n1)n(C1CCCC1)c(=O)n2C
72.4

A = COc1cc(N2CCCN(C)CC2)ccc1Nc1ncc2c(n1)n(C(C)C)c(=O)n2C
B = CCOc1cc(OC2CCN(C)CC2)ccc1Nc1ncc2c(n1)n(C1CCCC1)c(=O)n2C
Q. Between A and B , which one shows the larger IC50 value? Selection: enter the item's label.
A. A

---

target: N-terminal GST tagged full length human TTK kinase (Homo sapiens); construct: N-terminal GST tagged full length human TTK kinase; GST (N); made in house; host or cells: insect cells; assay: In Vitro TTK Kinase Assay 1 (AlphaScreen); assay type: biochemical; conditions: recombinant TTK, 10 μM ATP, read-out: EAA: Enzyme Assay Activity (In Vitro TTK kinase assay 1)
attribute_measured: IC50 (nM)

COc1cc(NC2CCN(C)CC2)ccc1Nc1ncc2c(n1)n(C1CCCC1)c(=O)n2C
317
COc1cc(CCN2CCN(C)CC2)ccc1Nc1ncc2c(n1)n(C1CCCC1)c(=O)n2C
288
CCn1c(=O)n(C2CCCC2)c2nc(Nc3ccc(S(C)(=O)=O)cc3OC)ncc21
1330

I = CCOc1cc(OC2CCN(C)CC2)ccc1Nc1ncc2c(n1)n(C1CCCC1)c(=O)n2C
II = COc1cc(C(=O)NC2CC3CCCC(C2)N3C)ccc1Nc1ncc2c(n1)n(C1CCCC1)c(=O)n2C (centres unmarked)
III = CCn1c(=O)n(C2CCCC2)c2nc(Nc3ccc(C(=O)NC)cc3OC)ncc21
IV = COc1cc(C(=O)N2CCCC2)ccc1Nc1ncc2c(n1)n(C1CCCC1)c(=O)n2C
V = CCOc1cc(N2CCC(N(C)C)CC2)ccc1Nc1ncc2c(n1)n(C1CCCC1)c(=O)n2C
Q. Sort by IC50, descending. Response format: the labels, sorted as the prompt asks.
A. II, IV, V, III, I
(II: 1560 nM, IV: 1050 nM, V: 703 nM, III: 371 nM, I: 50.9 nM)
